Biological target: Human vitronectin receptor (αvβ3) (Homo sapiens, UniProt P05106+P06756)
Construct: Human vitronectin receptor (αvβ3) was purified from human placenta; from tissue; host or cells: human placenta
Test: Vitronectin adhesion assay (solid phase receptor assay, competition with biotinylated vitronectin)
Type: binding
Conditions: read-out: AvB3 IC50
Structures can show the parent of a compound that is named as a salt.
Each item that follows carries a reported pIC50.
pIC50 is defined as minus the log10 of a concentration measured in mol/L.

Some solved entries appear below for comparison.
[ask] Give the value of pIC50 reported for the following: COc1cc(OC)cc(C(CC(=O)O)NC(=O)CNC(=O)c2cccc(NC(=N)N)c2)c1 (racemic) [Example 195, trifluoroacetate salt]
[reply] 8.96

[ask] Give the value of pIC50 reported for the following: O=C(O)CC(NC(=O)CNC(=O)c1cccc(NC(=O)Nc2ccccc2)c1)c1ccc2c(c1)OCO2 (stereo not shown)
[reply] 7.66

[ask] Give the value of pIC50 reported for the following: C/N=C(\NC)Nc1cccc(C(=O)NCC(=O)NC(CC(=O)O)c2cc(Cl)cc(Cl)c2)c1 (racemic) [Example 294, trifluoroacetate salt]
[reply] 6.76

***
[ask] Give the value of pIC50 reported for the following: CN(CC(=O)NC(CC(=O)O)c1cccnc1)C(=O)c1cccc(NC(=N)N)c1 (racemic)
[reply] 8.02

[ask] Give the value of pIC50 reported for the following: Cc1ccc(O)c(C(CC(=O)O)NC(=O)CNC(=O)c2cccc(NC(=N)N)c2)c1 (racemic) [Example 88, trifluoroacetate salt]
[reply] 8.07

[ask] Give the value of pIC50 reported for the following: O=C(O)CC(NC(=O)CNC(=O)c1cccc(NC(=O)NCc2ccccc2)c1)c1cccnc1 (racemic) [Example 47, hydrochloride salt]
[reply] 9.07

[ask] Give the value of pIC50 reported for the following: N=C(N)Nc1cccc(C(=O)NCC(=O)NC(CC(=O)O)c2ccccc2)c1 (racemic) [Example 4, trifluoroacetate salt]
[reply] 8.50
